target.or.system: Follistatin (Homo sapiens) (UniProt P19883)
Sequence (P19883 whole entry, looked up): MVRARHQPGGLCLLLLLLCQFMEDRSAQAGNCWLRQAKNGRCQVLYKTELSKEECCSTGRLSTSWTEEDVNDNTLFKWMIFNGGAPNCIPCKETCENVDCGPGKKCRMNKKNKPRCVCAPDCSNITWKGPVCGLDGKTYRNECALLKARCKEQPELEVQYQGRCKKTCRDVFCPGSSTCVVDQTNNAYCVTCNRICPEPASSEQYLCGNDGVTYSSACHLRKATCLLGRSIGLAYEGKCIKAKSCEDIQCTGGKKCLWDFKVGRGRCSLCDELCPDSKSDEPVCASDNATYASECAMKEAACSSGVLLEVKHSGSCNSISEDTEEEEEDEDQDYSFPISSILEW
procedure.details: follistatin binders on small-molecule microarrays, primary screen, biochemical, small-molecule microarray, 635/667 nm fluorescence (AID 1132)
setup.conditions: FST binding, 635 nm fluorescence, higher = more signal
measured.attribute: composite z-score
The reply should be a number, written without any unit.

Ask | // returns reported composite z-score for input `COC(=O)CC=C[C@H](C)[C@@H](OCc1ccccc1Br)C(C)C`
Reply | 0.292

Ask | Field request: composite z-score | item: `O=C1C[C@@H](O)[C@@H](O)[C@@H]2[C@@H]3C(=O)N(c4ccc(F)cc4F)C(=O)[C@@H]3CC[C@@H]12`
Reply | 0.312

Ask | For the molecule shown here, `C[C@@H]1CC[C@H]2C(=O)O[C@H](COc3ccc(C(C)(C)C)cc3)CN2[C@H]1c1ccc(Br)cc1` , give the reported composite z-score.
Reply | -0.123

Ask | Recorded composite z-score of `[N-]=[N+]=NCc1ccccc1[C@@H]1OC(c2ccc(OCCCO)cc2)=N[C@]1(Cc1ccccc1)C(=O)N1CCOCC1` , please.
Reply | 1.15

Ask | Sample CCN(CC)c1ccc(N2CC=CC34O[C@@H]5/C=C\CCC(C)OC(=O)C5[C@H]3C(=O)N(CCCO)[C@@H]4C2=O)cc1 (stereo not given in full) — what was its composite z-score?
Reply | -0.247
